- Tested on: OVCAR-4 ovarian
- protocol.notes: NCI-60 one-dose screen, 48 h (100 = growth as untreated, 0 = no growth, -100 = all killed)
- condition.details: 10 µM unless noted
The panel holds about 83,000 compounds, 20% with a hit somewhere; the sample as a whole holds those more often.
readout.name: growth (%)
Kindly provide the numeric value in % only, without the unit symbol.

Answered examples (5):
O=C(COc1cccc(/C=C2\COc3ccccc3C2=O)c1)c1ccccc1 ... 79.2
NS(=O)(=O)c1cc(Br)c2c(c1)S(=O)(=O)NCN2 ... 120
COc1ccc(Nc2nc(NCCNc3ccnc4cc(Cl)ccc34)nc(N3CCOCC3)n2)cc1 ... 81.3
Cn1c2ccccc2c2nn(C(=O)c3ccccc3)c(=O)nc21 ... 125
CCCCc1ccc(C(O)(CCN2CC3CCC(CC3)C2)c2ccccc2)cc1 (stereo unspecified) ... 97

Q: Notebook: pull reported growth for OVCAR-4 ovarian, entry COc1cc2cc(Oc3ccc(NC(=O)Nc4cccc(C(F)(F)F)c4)cc3)c(C)nc2cc1OCCN1CCCCC1
Result: -12.9

Source listed as PubChem BioAssay (NCI).
